Entries and their melting point

{"columns": ["Compound", "melting point"],
 "data": [
  ["CCN(C(C)C)C(C)CC1=C(c2ccc(OC)cc2)CCCNC1=O (stereo not given)", "64 to 66 °C"],
  ["CCOC(=O)c1ccc(N2CCN(Cc3c[nH]c4ncccc34)CC2)cc1", "196 to 197 °C"],
  ["ON=Cc1ccc(Cl)c(Cl)c1OCc1ccccc1", "64 to 69 °C"],
  ["O=C1c2ccccc2-c2nc3ccc(O)cc3c(Cl)c21", "253 °C"],
  ["CCN1CCCC1CNC(=O)c1ccc(Nc2ncnc3cc(C(F)(F)F)ccc23)cc1 (stereo not given)", "150 to 152 °C"]
]}

====

Entries and their melting point

{"columns": ["Compound", "melting point"],
 "data": [
  ["O=C(Nc1cc(S(=O)(=O)N(CCO)CCO)sc1Cl)c1cnn2c(C(F)(F)F)cc(-c3ccc(C(F)(F)F)cc3)nc12", "217 °C"],
  ["O=C(Nc1ccc(F)nc1)N1CCN(c2ccnc(-c3cccc(F)c3F)n2)CC1", "192 to 193 °C"],
  ["Cc1cc(C#N)cc(C(C#N)c2nc(OCc3ccccc3)nc(OCc3ccccc3)c2C(C)(C)C)c1 (centres undefined)", "126 to 128 °C"],
  ["COC(=O)C1=C(C)NC(C)=C(C(=O)OCCCCCCS(=O)c2nc(C)cs2)C1c1cccc([N+](=O)[O-])c1 (centres undefined)", "81 to 83 °C"]
]}

====

Entries and their melting point

{"columns": ["Compound", "melting point"],
 "data": [
  ["CNC(=O)[C@@H]1C[C@@H](Oc2ccccc2)CN1S(=O)(=O)c1ccc(Cl)c(COc2cccc3c(-n4ccnc4)cc(C)nc23)c1Cl", "97 °C"],
  ["O=C(NCCn1ccnc1)c1cc2cc(Cl)ccc2[nH]1", "167 to 169 °C"],
  ["O=C(Nc1ccc([N+](=O)[O-])cc1)N[C@H]1C[C@H](C(=O)O)Nc2cc(Cl)cc(Cl)c21 (relative stereo)", "185 to 186 °C"],
  ["CC(=O)c1cc(C=O)c2occc2c1", "91 to 93 °C"],
  ["Cc1cccc(Nc2c([N+](=O)[O-])cc(C(=O)O)cc2S(N)(=O)=O)c1", "256 to 259 °C"],
  ["CNS(=O)(=O)c1ccc(Nc2cc(N3CCCC3)cc(-c3ccc(OC(F)(F)F)cc3)n2)cc1", "83 to 85 °C"],
  ["CCOC(=O)C(=CNc1csnn1)C(=O)c1cc(F)c(F)cc1F", "104 to 106 °C"],
  ["COc1ccc(NC(=O)c2csc(Nc3ccc(C)cn3)n2)cc1OC", "212 to 214 °C"],
  ["c1cnn(Cc2ccc3c(c2)-c2[nH]nc(-c4ccsc4)c2C3)c1", "245 to 247 °C"],
  ["COc1cc(COc2cc(CO)n(-c3ccccc3)n2)ccc1OCc1nc(-c2ccco2)oc1C", "106 to 107 °C"],
  ["Cc1nc2oc3c(c2c(=O)[nH]1)CCCC3", "> 300 °C"],
  ["COc1ccc(NC(=O)/C=C/c2cc(OC)c(OC)c(OC)c2)cc1N", "202 to 204 °C"],
  ["O=[N+]([O-])c1cc2c(c3ccc(S(=O)(=O)NCCO)cc13)C(CCl)CN2 (stereo unspecified)", "173 to 174 °C"],
  ["FC(F)(F)c1sc(S)nc1Cl", "142 to 144 °C"],
  ["CCc1cccc(CC(=O)O)c1OCCCc1cn(-c2ccc(Br)cn2)nc1C(CC)CC", "123 °C"],
  ["N#CCc1cccc([N+](=O)[O-])c1[N+](=O)[O-]", "88 to 90 °C"],
  ["N#Cc1nn(-c2c(Cl)cc(C(F)(F)F)cc2Cl)c(N)c1-c1ccoc1", "180 to 181 °C"],
  ["O=[N+]([O-])c1ccc(OCc2cscn2)cc1", "175 to 176 °C"],
  ["CCOC(=O)CC1SC2=Nc3ccccc3CN2C1=O (stereo unspecified)", "130 to 142 °C"],
  ["CN(C)c1cc2c(cc1O)CCC1C2CCC2(C)C(=O)CCC12 (stereo unspecified)", "160 to 161 °C"],
  ["COC(=O)CCCc1cc2nc(Cl)ccc2n1S(=O)(=O)c1cccc(-c2ccnc(C)n2)c1", "140 to 144 °C"],
  ["CCOC(=O)c1c(CCBr)nc2cc(OC)c(OC)cc2c1-c1ccc(OC)c(OC)c1", "132 to 133 °C"],
  ["O=C(O)C(=O)CC(=O)c1cccn1Cc1cc(F)cc(F)c1", "166 to 168 °C"],
  ["Cc1csc2ncc(C(O)CCCCc3ccccc3)n12 (stereo unspecified)", "120 to 121 °C"],
  ["CCSc1ccc2oc3cc(-c4nnn[nH]4)ccc3c(=O)c2c1", "261 to 262 °C"],
  ["Cc1cc(CCCOc2c(C)cc(C(=N)NO)cc2C)on1", "129 to 130 °C"],
  ["COc1cccc([C@H]2O[C@H](CC(=O)Nc3cc(Cl)cc4cc(C(=O)O)oc34)C(=O)N(CC(C)(C)CO)c3ccc(Cl)cc32)c1OC", "179 to 180 °C"],
  ["CCC(=NNc1ccccc1)c1cc(Cl)ccc1NS(=O)(=O)C(F)(F)F", "128 to 129 °C"],
  ["Cc1nc(NC(=O)c2cnn3c(C(F)(F)F)cc(-c4ccc(Cl)c(Cl)c4)nc23)sc1S(N)(=O)=O", "307 °C"],
  ["O=C(C=Cc1ccc2ccccc2c1)NCCCCCC(=O)NO", "161 to 163 °C"],
  ["CCCc1[nH]c(=O)[nH]c(=O)c1N1CCN(Cc2ccccc2)CC1", "233 to 235 °C"],
  ["CS(=O)(=O)c1cccc(NC(=O)c2cnn3c(C(F)(F)F)cc(-c4ccc(OC(F)(F)F)cc4)nc23)c1", "245 °C"],
  ["Cc1ccc(-c2nc(C(F)(F)F)oc2-c2ccc(S(C)(=O)=O)cc2)cc1", "141 to 142 °C"],
  ["CN1CCN(C)C1=Nc1ccccc1N1CCOCC1", "133 to 134 °C"],
  ["Cc1ccc(-c2ccc(Sc3ccccc3)s2)cc1C", "77 to 78 °C"],
  ["CCC(=O)c1ccc(O)c(CNC(=O)CCl)c1", "143 to 145 °C"],
  ["OCCCOc1cccc2sccc12", "82 °C"],
  ["CS(=O)(=O)c1ccc(-n2cc(-c3ccc(Br)cc3)nc2-c2ccc(Cl)cc2)cc1", "145 to 148 °C"],
  ["Nc1n[nH]cc1S(=O)(=O)c1ccccc1", "159 to 161 °C"],
  ["CCCCC[C@H]1CC[C@H](CCCCc2ccc(C#N)cc2)CC1", "51 °C"],
  ["Clc1ccc2oc(-c3ccc(N4CCCCC4)cc3)nc2c1", "162 to 164 °C"]
]}

====

Value kind: melting point

{"columns": ["Compound", "Experimental value"],
 "data": [
  ["O=C1Nc2ccccc2SC[C@@H]1N1C(=O)c2ccccc2C1=O", "202 to 205 °C"],
  ["Nc1ccccc1Sc1cccc2c1C(=O)c1cccc(Sc3ccccc3N)c1C2=O", "283 to 284 °C"],
  ["COc1cc2cc(C3=NNC(=O)CC3)sc2cc1OC", "254 to 256 °C"],
  ["COC(=O)CNc1cccc(Br)c1", "66 to 68 °C"],
  ["CCc1nn2c(N)cc(N3CCN(C)CC3)nc2c1S(=O)(=O)c1ccccc1", "> 250 °C"],
  ["CN(C)CCc1[nH]c2ccc(Br)cc2c1CSc1ccccc1", "112 to 115 °C"],
  ["COc1cc(CNc2n[nH]c3ncnc(Nc4cccc(Cl)c4)c23)ccc1O", "223 to 225 °C"],
  ["COc1ccc(S(=O)(=O)N2Cc3ccsc3C[C@@H]2C(=O)O)cc1", "110 °C"],
  ["COP(=O)(Cc1ccc2ccccc2c1)OC", "80 to 81 °C"],
  ["c1cc(Nc2ccc3[nH]ncc3c2)ccn1", "189 to 190 °C"],
  ["Cc1c(-c2ccnnc2)ssc1=S", "146 °C"],
  ["COc1ccc(C[C@H](N[C@@H](Cc2ccccc2)C(=O)O)C(=O)NCCc2ocnc2C(=O)O)cc1", "103 to 106 °C"],
  ["CCOC(=O)c1nn(-c2ccc(Cl)cc2Cl)c(-c2ccc(Br)cc2)c1C", "133 °C"],
  ["COc1ccccc1N1CCC(CNC[C@H]2COc3ccccc3O2)CC1", "78 to 79 °C"],
  ["NS(=O)(=O)c1ccc(CCCNCC(O)c2ccccc2)cc1 (configuration not stated)", "165 to 166 °C"],
  ["CC(C)(C)c1ccccc1N1CCC(N)=N1", "114 °C"],
  ["CC(C)N(Cc1ccccc1)c1ncnc2c(N3CCOCC3)nc(N3CCC(N(C)C)CC3)nc12", "122 to 125 °C"],
  ["C=CCOc1cccc2c1C(=O)N(C(C)(C#N)C(C)C)C2=O (configuration not stated)", "54 to 58 °C"],
  ["C[C@@H]1CN(C(=O)N(c2ccccc2)c2ccccc2)[C@@H](C)CN1C(=O)N(c1ccccc1)c1ccccc1", "255 to 257 °C"],
  ["CC(C)(C)NS(=O)(=O)c1cc(C(=O)O)ccc1C(=O)O", "210 to 213 °C"],
  ["CS(=O)(=O)c1ccc2cc(C(=O)O)ccc2c1", "301 to 304 °C"],
  ["CC1(C)c2cc3[nH]c(-c4ccncc4)nc3cc2C(=O)NC1O (configuration not stated)", "260 to 268 °C"]
]}
